MBC listing for selected compounds.
- System: Escherichia coli
- procedure text: Bactericidal activity against Escherichia coli MTCC 739 incubated for 24 hrs at 37 degC
- Type: functional
- experimental parameters: MTCC 739, 24 h
Report only the number, with the unit µM understood.

Here's what some known entries look like.
O=C(O)c1cn(C2CC2)c2cc(N3CCNCC3)c(F)cc2c1=O :: 5.7
O=C(Cc1cccc(Cl)c1)NCC1=Cc2cc(Br)ccc2OC1(O)C(F)(F)F (stereo not given) :: 37.1

Let us examine a further case.
Request the reported MBC associated with O=C(CBr)NCC1=Cc2cc(Br)ccc2OC1(O)C(F)(F)F (stereo not given) 16.6

----------
log10 IC50 listing for selected compounds.
- System: Escherichia coli
- procedure text: Inhibition of bio-film formation of Escherichia coli MTCC 739 incubated for 24 hrs at 37 degC under static conditions by crystal violet staining method
- Format: functional, organism-based
- experimental parameters: MTCC 739, 24 h
Remember, log10 of IC50, in µM.

O=C(CBr)NCC1=Cc2ccccc2OC1(O)C(F)(F)F (stereo not given) :: 1.02
O=C(Cc1cccc(Cl)c1)NCC1=Cc2cc(Br)ccc2OC1(O)C(F)(F)F (stereo not given) :: 0.91
O=C(CBr)NCC1=Cc2cc(Br)ccc2OC1(O)C(F)(F)F (stereo not given) :: 0.15
O=C(Cc1ccc(Br)cc1)NCC1=Cc2cc(Br)ccc2OC1(O)C(F)(F)F (stereo not given) :: 0.76

Let us examine a further case.
Request the reported log10 IC50 associated with CC[C@H]1OC(=O)[C@H](C)[C@@H](O[C@H]2C[C@@](C)(OC)[C@@H](O)[C@H](C)O2)[C@H](C)[C@@H](O[C@@H]2O[C@H](C)C[C@H](N(C)C)[C@H]2O)[C@](C)(O)C[C@@H](C)C(=O)[C@H](C)[C@@H](O)[C@]1(C)O -0.37

----------
- System: Micrococcus luteus
- procedure text: Bactericidal activity against Micrococcus luteus MTCC 2470 incubated for 24 hrs at 37 degC
- Format: functional
- experimental parameters: MTCC 2470, 24 h
measured metric: log10 MBC (log10 of the value in µM)
Remember, log10 of MBC, in µM.

Here's what some known entries look like.
O=C(O)c1cn(C2CC2)c2cc(N3CCNCC3)c(F)cc2c1=O [CIPROFLOXACIN] :: 0.76
O=C(Cc1ccc(Br)cc1)NCC1=Cc2cc(Br)ccc2OC1(O)C(F)(F)F (stereo not drawn) :: 1.46
O=C(Cc1ccc(Br)cc1)NCC1=Cc2ccccc2OC1(O)C(F)(F)F (stereo not drawn) :: 1.53

Request the reported log10 MBC associated with O=C(CBr)NCC1=Cc2ccccc2OC1(O)C(F)(F)F (stereo not drawn) 1.58

Okay, and O=C(CBr)NCC1=Cc2cc(Br)ccc2OC1(O)C(F)(F)F (stereo not drawn) ? 0.92

Okay, and O=C(Cc1cccc(Cl)c1)NCC1=Cc2ccccc2OC1(O)C(F)(F)F (stereo not drawn) ? 1.87

Okay, and O=C(Cc1ccccc1)NCC1=Cc2cc(Br)ccc2OC1(O)C(F)(F)F (stereo not drawn) ? 1.53

Okay, and O=C(Cc1cccc(Cl)c1)NCC1=Cc2cc(Br)ccc2OC1(O)C(F)(F)F (stereo not drawn) ? 1.87

----------
- Test system: Raoultella planticola
- procedure text: Antimicrobial activity against Klebsiella planticola MTCC 530 incubated for 24 hrs at 37 degC by well diffusion method
- Format: functional
- experimental parameters: MTCC 530, 24 h
measured metric: MIC

O=C(Cc1ccccc1)NCC1=Cc2ccccc2OC1(O)C(F)(F)F (stereo unspecified) :: > 125 µg/mL

Notebook: pull reported MIC for Raoultella planticola, entry O=C(Cc1cccc(Cl)c1)NCC1=Cc2ccccc2OC1(O)C(F)(F)F (stereo unspecified) 37.1 µM

Okay, and CC(=O)NCC1=Cc2cc(Br)ccc2OC1(O)C(F)(F)F (stereo unspecified) ? > 125 µg/mL

Okay, and O=C(CBr)NCC1=Cc2cc(Br)ccc2OC1(O)C(F)(F)F (stereo unspecified) ? 4 µM

Okay, and O=C(Cc1ccc(Br)cc1)NCC1=Cc2ccccc2OC1(O)C(F)(F)F (stereo unspecified) ? 33.6 µM

Okay, and O=C(CCCCBr)NCC1=Cc2ccccc2OC1(O)C(F)(F)F (stereo unspecified) ? > 125 µg/mL

----------
MBC listing for selected molecules.
- Test system: Escherichia coli
- procedure text: Bactericidal activity against Escherichia coli MTCC 739 incubated for 24 hrs at 37 degC
- Assay type: functional
- experimental parameters: MTCC 739, 24 h
Report only the number, with the unit µM understood.

O=C(CBr)NCC1=Cc2ccccc2OC1(O)C(F)(F)F (stereo not drawn) :: 38.3

Request the reported MBC associated with O=C(Cc1ccc(Br)cc1)NCC1=Cc2cc(Br)ccc2OC1(O)C(F)(F)F (stereo not drawn) 14.3

----------
- System: Micrococcus luteus
- procedure text: Antimicrobial activity against Micrococcus luteus MTCC 2470 incubated for 24 hrs at 37 degC by well diffusion method
- Assay type: functional
- experimental parameters: MTCC 2470, 24 h
MIC listing for selected molecules.
Report only the number, with the unit µM understood.

O=C(CBr)NCC1=Cc2cc(Br)ccc2OC1(O)C(F)(F)F (stereo not given) :: 8.3
O=C(CBr)NCC1=Cc2ccccc2OC1(O)C(F)(F)F (stereo not given) :: 19.1

Let us examine a further case.
Request the reported MIC associated with O=C(Cc1ccc(Br)cc1)NCC1=Cc2cc(Br)ccc2OC1(O)C(F)(F)F (stereo not given) 28.6

----------
MIC listing for selected compounds.
- Test system: Micrococcus luteus
- procedure text: Antimicrobial activity against Micrococcus luteus MTCC 2470 incubated for 24 hrs at 37 degC by well diffusion method
- Format: functional
- experimental parameters: MTCC 2470, 24 h

O=C(Cc1cccc(Cl)c1)NCC1=Cc2cc(Br)ccc2OC1(O)C(F)(F)F (stereo unspecified) :: 31.2 µM

Notebook: pull reported MIC for Micrococcus luteus, entry CC(=O)NCC1=Cc2cc(Br)ccc2OC1(O)C(F)(F)F (stereo unspecified) > 125 µg/mL

Okay, and O=C(CCBr)NCC1=Cc2ccccc2OC1(O)C(F)(F)F (stereo unspecified) ? > 125 µg/mL

Okay, and O=C(O)c1cn(C2CC2)c2cc(N3CCNCC3)c(F)cc2c1=O ? 2.7 µM

Okay, and O=C(CCBr)NCC1=Cc2cc(Br)ccc2OC1(O)C(F)(F)F (stereo unspecified) ? > 125 µg/mL

Okay, and O=C(CCCCBr)NCC1=Cc2ccccc2OC1(O)C(F)(F)F (stereo unspecified) ? > 125 µg/mL

Okay, and O=C(Cc1ccccc1)NCC1=Cc2cc(Br)ccc2OC1(O)C(F)(F)F (stereo unspecified) ? > 125 µg/mL

Okay, and Clc1ccc(COC(Cn2ccnc2)c2ccc(Cl)cc2Cl)c(Cl)c1 (stereo unspecified) ? > 125 µg/mL

Okay, and O=C(Cc1ccc(Br)cc1)NCC1=Cc2ccccc2OC1(O)C(F)(F)F (stereo unspecified) ? > 125 µg/mL

Okay, and O=C(CCCCBr)NCC1=Cc2cc(Br)ccc2OC1(O)C(F)(F)F (stereo unspecified) ? > 125 µg/mL

Okay, and CC(=O)NCC1=Cc2ccccc2OC1(O)C(F)(F)F (stereo unspecified) ? > 125 µg/mL
